Entry source: patent US20250295799A1

Listed below: pKd values for each entry.
molecular target: T1, human glypican-3 (GPC3) (human, UniProt P51654 25-554); experiment: flow cytometry on CHO-S cells transfected with human GPC3;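 note: antibody binding to transiently transfected CHO-S cells after 24 hours at 4 °C, read as geometric mean fluorescence of anti-human AF647 in live cells, fitted against antibody concentration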
T1 construct: Endogenous on JHH-7, JHH-5, HepG2 and NCI-H446 tumour cells, or transiently expressed on CHO-S cells from a pTT5 plasmid; also called hGPC3; huGPC3
pKd: −log10 of the molar value.
Measurement Type: pKd

{"columns": ["Binder", "Meas Value"],
 "data": [
  ["H18L6_LC_G34K mAb, v40207 (antibody, human IgG1, kappa, V domains shown, Full-size IgG1/kappa) VH: QVQLVQSGAEVKKPGSSVKVSCKASGYTFTDYEMHWVKQAPGHGLEWIGAIDPETGDTAYNQKFKGKATLTADTSTSTAYMELSSLRSEDTAVYYCTRYFSFAYWGQGTLVTVSS VL: EIVLTQSPATLSLSPGERATISCRSSQSLRHSNKNTYLQWYQQKPGQAPRLLIYKVSNRFSGVPARFSGSGSGTDFTLTISSLEPEDFAVYFCYQSKHVPYTFGGGTKVEIKR", 9.96],
  ["H18L6_LC_G34H mAb, v40205 (antibody, human IgG1, kappa, V domains shown, M3-H18L6 chains with the stated light chain point mutation, IgG1/kappa) VH: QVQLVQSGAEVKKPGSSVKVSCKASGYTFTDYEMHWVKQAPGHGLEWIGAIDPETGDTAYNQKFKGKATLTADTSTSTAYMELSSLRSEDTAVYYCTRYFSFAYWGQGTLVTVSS VL: EIVLTQSPATLSLSPGERATISCRSSQSLRHSNHNTYLQWYQQKPGQAPRLLIYKVSNRFSGVPARFSGSGSGTDFTLTISSLEPEDFAVYFCYQSKHVPYTFGGGTKVEIKR", 10.00],
  ["H18L6_LC_G34E mAb, v40204 (antibody, human IgG1, kappa, V domains shown, M3-H18L6 chains with the stated light chain point mutation, IgG1/kappa) VH: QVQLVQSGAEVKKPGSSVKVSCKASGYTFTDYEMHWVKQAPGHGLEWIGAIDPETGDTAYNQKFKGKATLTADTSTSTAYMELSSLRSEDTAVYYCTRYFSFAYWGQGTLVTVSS VL: EIVLTQSPATLSLSPGERATISCRSSQSLRHSNENTYLQWYQQKPGQAPRLLIYKVSNRFSGVPARFSGSGSGTDFTLTISSLEPEDFAVYFCYQSKHVPYTFGGGTKVEIKR", 9.96],
  ["H18L6_LC_G34A mAb, v40212 (antibody, human IgG1, kappa, V domains shown, M3-H18L6 chains with the stated light chain point mutation, IgG1/kappa) VH: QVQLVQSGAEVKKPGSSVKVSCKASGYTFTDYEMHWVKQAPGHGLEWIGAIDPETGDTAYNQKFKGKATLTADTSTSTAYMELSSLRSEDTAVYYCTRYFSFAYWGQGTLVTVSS VL: EIVLTQSPATLSLSPGERATISCRSSQSLRHSNANTYLQWYQQKPGQAPRLLIYKVSNRFSGVPARFSGSGSGTDFTLTISSLEPEDFAVYFCYQSKHVPYTFGGGTKVEIKR", 9.92],
  ["H18L6_LC_G34S mAb, v40210 (antibody, human IgG1, kappa, V domains shown, M3-H18L6 chains with the stated light chain point mutation, IgG1/kappa) VH: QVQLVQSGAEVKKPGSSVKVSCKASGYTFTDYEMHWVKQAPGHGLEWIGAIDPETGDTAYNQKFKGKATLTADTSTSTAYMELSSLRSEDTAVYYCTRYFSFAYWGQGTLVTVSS VL: EIVLTQSPATLSLSPGERATISCRSSQSLRHSNSNTYLQWYQQKPGQAPRLLIYKVSNRFSGVPARFSGSGSGTDFTLTISSLEPEDFAVYFCYQSKHVPYTFGGGTKVEIKR", 10.22]
]}
